target: Metabotropic glutamate receptor 1 (Homo sapiens)
measurement.protocol: Negative allosteric modulation of human mGlu1 receptor expressed in HEK293A TREx cells assessed as calcium flux after 45 mins
Sequence (Q13255 whole entry): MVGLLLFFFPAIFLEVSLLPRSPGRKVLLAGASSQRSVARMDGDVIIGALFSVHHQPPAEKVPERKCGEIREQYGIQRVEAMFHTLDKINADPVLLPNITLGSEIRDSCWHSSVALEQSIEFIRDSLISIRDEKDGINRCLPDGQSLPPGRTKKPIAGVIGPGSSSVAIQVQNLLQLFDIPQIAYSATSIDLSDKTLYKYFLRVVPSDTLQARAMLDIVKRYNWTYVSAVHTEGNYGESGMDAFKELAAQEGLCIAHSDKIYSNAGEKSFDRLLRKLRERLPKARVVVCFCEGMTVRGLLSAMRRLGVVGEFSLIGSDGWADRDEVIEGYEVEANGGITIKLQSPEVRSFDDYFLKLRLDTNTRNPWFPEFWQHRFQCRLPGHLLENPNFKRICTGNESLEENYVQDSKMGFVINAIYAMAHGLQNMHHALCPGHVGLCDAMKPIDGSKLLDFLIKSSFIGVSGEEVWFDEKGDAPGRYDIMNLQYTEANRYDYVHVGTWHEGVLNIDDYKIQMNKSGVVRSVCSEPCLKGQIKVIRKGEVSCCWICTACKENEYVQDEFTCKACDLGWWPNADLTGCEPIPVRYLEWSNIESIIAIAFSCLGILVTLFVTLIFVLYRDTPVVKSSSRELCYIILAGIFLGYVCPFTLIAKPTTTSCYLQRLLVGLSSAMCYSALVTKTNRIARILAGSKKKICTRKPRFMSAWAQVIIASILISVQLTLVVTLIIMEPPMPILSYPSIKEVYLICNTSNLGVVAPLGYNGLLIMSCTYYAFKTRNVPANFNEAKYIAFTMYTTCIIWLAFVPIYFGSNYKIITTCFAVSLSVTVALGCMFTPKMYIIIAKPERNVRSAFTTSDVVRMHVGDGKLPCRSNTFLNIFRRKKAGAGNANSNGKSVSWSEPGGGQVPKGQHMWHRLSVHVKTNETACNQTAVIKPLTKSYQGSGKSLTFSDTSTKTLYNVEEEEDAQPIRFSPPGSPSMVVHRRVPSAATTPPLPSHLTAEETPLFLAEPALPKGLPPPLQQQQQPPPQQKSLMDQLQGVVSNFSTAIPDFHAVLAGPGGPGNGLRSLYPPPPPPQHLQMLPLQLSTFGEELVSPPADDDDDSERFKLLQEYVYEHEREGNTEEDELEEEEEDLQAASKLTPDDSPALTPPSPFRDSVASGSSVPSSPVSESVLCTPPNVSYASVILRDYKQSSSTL
pIC50: −log10 of the molar value.
value.kind: pIC50

O=C(N1CCC2(CCCCC2)CC1)N1C[C@@H]2CN(c3ccccn3)C[C@@H]2C1 = 6.44
CC(C)(C)C(=O)N1C[C@@H]2CN(c3ccccn3)C[C@@H]2C1 = < 4.52
CC(C)(C)CC(=O)N1C[C@@H]2CN(c3ccccn3)C[C@@H]2C1 = < 4.52

Measured pIC50 of `O=C(CC1CCCCC1)N1C[C@@H]2CN(c3ccccn3)C[C@@H]2C1` : < 5.00

Measured pIC50 of `O=C(N1C[C@@H]2CN(c3ncccn3)C[C@@H]2C1)C12CC3CC(CC(C3)C1)C2` : < 5.00

Measured pIC50 of O=C(N1C[C@@H]2CN(c3ccccn3)C[C@@H]2C1)C12C3C4C5C3C1C5C42 (some centres undefined) : < 5.00

Measured pIC50 of `O=C(N1CCC2(CCCC2)CC1)N1C[C@@H]2CN(c3ccccn3)C[C@@H]2C1` : 6.11

Measured pIC50 of `C[C@H]1CC[C@H](C(=O)N2C[C@H]3CN(c4ccccn4)C[C@H]3C2)CC1` : < 5.00

Measured pIC50 of `O=C(N1CC2CCCC(C2)C1)N1C[C@@H]2CN(c3ccccn3)C[C@@H]2C1` : 5.72

* * *

target: Metabotropic glutamate receptor 1 (Homo sapiens, UniProt Q13255)
measurement.protocol: Negative allosteric modulation of human mGlu1 receptor expressed in HEK293A TREx cells assessed as calcium flux at 30 uM after 45 mins relative to glutamate
Type: functional, cell-based
test.conditions: HEK293-A
Sequence (Q13255 19-1194 limits assumed): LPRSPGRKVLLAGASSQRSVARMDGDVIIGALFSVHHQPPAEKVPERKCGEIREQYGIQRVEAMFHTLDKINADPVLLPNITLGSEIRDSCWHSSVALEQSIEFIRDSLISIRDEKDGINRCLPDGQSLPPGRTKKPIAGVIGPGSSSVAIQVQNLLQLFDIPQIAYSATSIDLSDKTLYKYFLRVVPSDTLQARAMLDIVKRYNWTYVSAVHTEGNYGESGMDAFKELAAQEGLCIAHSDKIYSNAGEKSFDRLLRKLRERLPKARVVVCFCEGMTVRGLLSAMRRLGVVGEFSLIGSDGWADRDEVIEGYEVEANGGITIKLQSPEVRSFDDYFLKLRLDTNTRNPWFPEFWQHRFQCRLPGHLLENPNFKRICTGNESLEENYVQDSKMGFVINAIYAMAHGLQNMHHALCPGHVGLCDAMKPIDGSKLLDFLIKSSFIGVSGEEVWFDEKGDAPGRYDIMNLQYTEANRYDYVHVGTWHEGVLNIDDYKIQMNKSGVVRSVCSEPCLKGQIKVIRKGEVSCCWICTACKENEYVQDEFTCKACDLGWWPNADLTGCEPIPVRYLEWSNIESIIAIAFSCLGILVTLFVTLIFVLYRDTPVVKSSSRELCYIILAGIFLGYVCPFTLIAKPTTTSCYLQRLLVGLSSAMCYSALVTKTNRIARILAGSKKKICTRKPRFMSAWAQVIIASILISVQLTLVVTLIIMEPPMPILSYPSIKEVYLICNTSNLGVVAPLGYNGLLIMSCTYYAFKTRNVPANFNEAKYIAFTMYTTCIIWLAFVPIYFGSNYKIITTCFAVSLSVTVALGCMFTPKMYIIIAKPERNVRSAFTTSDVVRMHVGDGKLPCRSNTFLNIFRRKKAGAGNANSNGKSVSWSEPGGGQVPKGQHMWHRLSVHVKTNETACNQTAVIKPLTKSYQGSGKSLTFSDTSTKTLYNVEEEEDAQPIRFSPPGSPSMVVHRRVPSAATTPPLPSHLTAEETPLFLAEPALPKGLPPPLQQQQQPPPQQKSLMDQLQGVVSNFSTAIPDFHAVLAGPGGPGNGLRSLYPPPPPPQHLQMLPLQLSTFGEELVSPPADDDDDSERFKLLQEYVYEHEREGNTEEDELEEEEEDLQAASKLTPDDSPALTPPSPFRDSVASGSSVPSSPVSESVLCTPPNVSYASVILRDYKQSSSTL
value.kind: %max (%)

[P] CC1(C)[C@@H]2CN(C(=O)N3C[C@@H]4CN(c5ccccn5)C[C@@H]4C3)C[C@@H]21
[Q] O=C(N1CCC2(CCCCC2)CC1)N1C[C@@H]2CN(c3ccccn3)C[C@@H]2C1
[R] O=C(N1CCCCCCC1)N1C[C@@H]2CN(c3ccccn3)C[C@@H]2C1
[S] N#Cc1ccncc1N1C[C@H]2CN(C(=O)C34CC5CC(CC(C5)C3)C4)C[C@H]2C1
Give the ascending ranking of the items by reported %max. Please respond with the labels ordered as the question requires. P, S, Q, R
(P: -7.5%, S: 0.1%, Q: 1.5%, R: 23.2%)

* * *

target: Metabotropic glutamate receptor 1 (Homo sapiens, UniProt Q13255)
measurement.protocol: Negative allosteric modulation of human mGlu1 receptor expressed in HEK293A TREx cells assessed as calcium flux after 45 mins
value.kind: IC50 (µM)

O=C(N1C[C@@H]2CN(c3cccc(F)n3)C[C@@H]2C1)C12CC3CC(CC(C3)C1)C2 = 0.093

[1] CC1(C)[C@@H]2CN(C(=O)N3C[C@@H]4CN(c5ccccn5)C[C@@H]4C3)C[C@@H]21
[2] N#Cc1ccncc1N1C[C@H]2CN(C(=O)C34CC5CC(CC(C5)C3)C4)C[C@H]2C1
[3] O=C(N1C[C@@H]2CN(c3ccccn3)C[C@@H]2C1)C12CC3CC(CC(C3)C1)C2
Ordering criterion: IC50; begin with the maximum. Please respond with the labels ordered as the question requires. 1, 2, 3

* * *

target: Metabotropic glutamate receptor 5 (Rattus norvegicus, UniProt P31424)
Sequence (P31424 whole entry): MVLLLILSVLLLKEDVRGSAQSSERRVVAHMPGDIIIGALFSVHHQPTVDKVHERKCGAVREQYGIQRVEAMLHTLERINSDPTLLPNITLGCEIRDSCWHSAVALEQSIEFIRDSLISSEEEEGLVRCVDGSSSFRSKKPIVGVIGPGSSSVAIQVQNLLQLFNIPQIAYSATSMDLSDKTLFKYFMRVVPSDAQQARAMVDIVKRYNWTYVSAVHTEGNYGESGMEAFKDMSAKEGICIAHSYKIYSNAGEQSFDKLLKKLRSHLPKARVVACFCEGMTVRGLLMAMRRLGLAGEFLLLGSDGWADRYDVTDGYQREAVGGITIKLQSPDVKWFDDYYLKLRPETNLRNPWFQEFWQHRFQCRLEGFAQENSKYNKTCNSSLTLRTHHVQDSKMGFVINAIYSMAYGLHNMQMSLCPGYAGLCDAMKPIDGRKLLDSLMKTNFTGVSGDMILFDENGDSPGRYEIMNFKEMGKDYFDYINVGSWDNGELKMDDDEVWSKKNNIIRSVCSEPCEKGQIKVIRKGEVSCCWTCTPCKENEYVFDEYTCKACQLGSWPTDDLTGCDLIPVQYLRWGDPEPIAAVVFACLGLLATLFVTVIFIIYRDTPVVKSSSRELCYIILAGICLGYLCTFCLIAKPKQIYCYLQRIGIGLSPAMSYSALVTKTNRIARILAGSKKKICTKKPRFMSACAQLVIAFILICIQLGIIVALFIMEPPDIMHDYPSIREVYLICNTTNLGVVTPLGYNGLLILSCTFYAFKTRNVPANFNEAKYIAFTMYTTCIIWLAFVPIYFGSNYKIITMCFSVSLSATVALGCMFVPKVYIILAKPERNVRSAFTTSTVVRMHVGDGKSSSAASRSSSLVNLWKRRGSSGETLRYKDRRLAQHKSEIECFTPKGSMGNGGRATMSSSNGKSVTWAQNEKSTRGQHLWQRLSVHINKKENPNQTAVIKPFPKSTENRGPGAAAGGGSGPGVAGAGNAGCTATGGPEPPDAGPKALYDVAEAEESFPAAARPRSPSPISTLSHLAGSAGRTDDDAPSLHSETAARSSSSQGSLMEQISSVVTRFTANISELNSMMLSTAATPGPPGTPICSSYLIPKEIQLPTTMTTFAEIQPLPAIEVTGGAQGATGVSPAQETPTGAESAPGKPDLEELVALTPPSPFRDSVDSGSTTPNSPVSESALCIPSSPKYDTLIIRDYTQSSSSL
measurement.protocol: Negative allosteric modulation of mGlu5 receptor (unknown origin) by cell based assay
value.kind: IC50 (µM)
Respond with the bare value in µM.

Measured IC50 of `O=C(N1C[C@@H]2CN(c3ccccn3)C[C@@H]2C1)C12CC3CC(CC(C3)C1)C2` : 3.36
